Items are presented alongside their recorded IC50.
- Test system: mouse dorsal root ganglion (DRG) neurons
- TEST NAME: Axon degeneration assay in mouse DRG drop culture
- Type: cell-based
- TEST PARAMETERS: DRG neuron, protection of axon fragmentation, axonal transection or chemotoxic stimuli
RESULT TYPE: IC50

>>> df
          item_smiles  measured_value
0  Brc1c[nH]c2cnccc12         < 10 µM
1   Ic1c[nH]c2cnccc12         < 10 µM
2     Brc1csc2cnccc12     10 to 30 µM

====

- ASSAYED TARGET: SARM1 SAM-TIR (Homo sapiens, UniProt Q6SZW1)
- Construct: This assay makes use of a fragment of the SARM1 molecule encompassing the SAM and TIR domains; clarified sonicated lysate used without purification)
- Sequence (Q6SZW1 409-724 limits assumed): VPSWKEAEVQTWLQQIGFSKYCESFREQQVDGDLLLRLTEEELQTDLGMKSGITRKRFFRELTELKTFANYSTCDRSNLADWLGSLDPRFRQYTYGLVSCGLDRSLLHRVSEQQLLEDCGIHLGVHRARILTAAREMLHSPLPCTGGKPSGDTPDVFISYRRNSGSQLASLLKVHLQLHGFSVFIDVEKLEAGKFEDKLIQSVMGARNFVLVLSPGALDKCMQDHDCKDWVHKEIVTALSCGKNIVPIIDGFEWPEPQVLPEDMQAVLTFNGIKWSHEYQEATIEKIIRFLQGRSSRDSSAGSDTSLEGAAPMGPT
- TEST NAME: SAM-TIR SARM1 IC50 assay (NADase activity, NAD+ cleavage)
- TEST PARAMETERS: SAM-TIR lysate 5 μg/mL, 2 h pre-incubation, 5 μM NAD+, RapidFire MS readout
RESULT TYPE: IC50

>>> df
                                 compound  measured_value
 0            Cn1cnc2cnccc21 [Example 28]         < 10 µM
 1        Brc1c[nH]c2nnccc12 [Example 44]         > 50 µM
 2       N#Cc1cc2ccncc2[nH]1 [Example 37]         > 50 µM
 3            Brc1cccc2nncn12 [Example 3]         > 50 µM
 4        Cn1cc(Br)c2ccncc21 [Example 16]         < 10 µM
 5             c1cc2ccsc2cn1 [Example 33]         < 10 µM
 6        Brc1cncc2[nH]ncc12 [Example 32]         < 10 µM
 7           Brc1csc2cnccc12 [Example 30]         < 10 µM
 8         Clc1c[nH]c2cnccc12 [Example 9]         < 10 µM
 9        Brc1n[nH]c2cnccc12 [Example 31]     10 to 30 µM
10     COCCn1cc(Br)c2ccncc21 [Example 12]     30 to 50 µM
11         Brc1c[nH]c2cnccc12 [Example 7]         < 10 µM
12  O=S1(=O)C=C(Br)c2ccncc21 [Example 40]     30 to 50 µM
13           Brc1csc2cnncc12 [Example 43]         < 10 µM

====

Items are presented alongside their recorded IC50.
- ASSAYED TARGET: SARM1 SAM-TIR (Homo sapiens)
- Construct: This assay makes use of a fragment of the SARM1 molecule encompassing the SAM and TIR domains; clarified sonicated lysate used without purification)
- TEST NAME: SAM-TIR SARM1 IC50 assay (NADase activity, NAD+ cleavage)
- TEST PARAMETERS: SAM-TIR lysate 5 μg/mL, 2 h pre-incubation, 5 μM NAD+, RapidFire MS readout
RESULT TYPE: IC50

>>> print(df.to_string())
                   item_smiles  measured_value
 0          CCn1cc(I)c2ccncc21         < 10 µM
 1      CC(C)n1cc(Br)c2ccncc21     30 to 50 µM
 2              Oc1nnc2cnccn12         > 50 µM
 3    NC(=O)Cn1cc(Br)c2ccncc21         > 50 µM
 4           Cn1cc(I)c2ccncc21         < 10 µM
 5          Brc1cccc2[nH]ncc12     10 to 30 µM
 6              Ic1csc2cnncc12         < 10 µM
 7         Cc1ccc2nc[nH]c2c1Br     30 to 50 µM
 8      COCCCn1cc(Br)c2ccncc21         > 50 µM
 9      Clc1nccc2c(Br)c[nH]c12         < 10 µM
10           Ic1c[nH]c2cnccc12         < 10 µM
11           Ic1c[nH]c2nnccc12         > 50 µM
12  CCOC(=O)c1[nH]c2cnccc2c1Br         > 50 µM
